The origin of these recorded values is ChEMBL document CHEMBL1127478.

Reported Ratio by item:
method_description: Selectivity aUT/aP ratio of the compound
Type: functional
// keep it numeric: no unit symbol after the value

Worked cases, Ratio given:
compound | recorded_value
NC(=O)CC[C@@H]1NC(=O)[C@H](Cc2ccccc2)NC(=O)[C@H](Cc2ccc(O)cc2)NC(=O)CC2(CCCCC2)SSC[C@H](C(=O)N2CCC[C@H]2C(=O)N[C@@H](CCCN=C(N)N)C(=O)NCC(N)=O)NC(=O)[C@H](CC(N)=O)NC1=O | 0.6
CCOc1ccc(CC2NC(=O)CC3(CCCCC3)SSC[C@@H](C(=O)N(C)CC(=O)N[C@@H](CCCN=C(N)N)C(=O)NCC(N)=O)NC(=O)[C@H](CC(N)=O)NC(=O)[C@H](CCC(N)=O)NC(=O)[C@H](Cc3ccccc3)NC2=O)cc1 (stereo in doubt) | 2.5

// below: Ratio requested for another compound
Q: Return the recorded Ratio value; entry: CN(CC(=O)N[C@@H](CCCN=C(N)N)C(=O)NCC(N)=O)C(=O)[C@@H]1CSSC2(CCCCC2)CC(=O)NC(Cc2ccccc2)C(=O)NC(Cc2ccccc2)C(=O)N[C@@H](CCC(N)=O)C(=O)N[C@@H](CC(N)=O)C(=O)N1 (stereo in doubt)
A: 2

###

experimental_system: Vasopressin V1 receptor (Rattus norvegicus, UniProt P48974+P30560)
method_description: Inhibition of radioligand [3H]AVP binding to V1 receptor in rat liver plasma membrane
Assay type: cell membranes
Residues, ends and D or L forms follow the SMILES beside them.
Use Kd to assign classes; range list: low: < 1 nM; mid: ≥ 1 nM and < 8 nM; high: ≥ 8 nM

molecule	qualitative_label
CN(CC(=O)N[C@@H](CCCN=C(N)N)C(=O)NCC(N)=O)C(=O)[C@@H]1CSSC2(CCCCC2)CC(=O)NC(Cc2ccccc2)C(=O)NC(Cc2ccccc2)C(=O)N[C@@H](CCC(N)=O)C(=O)N[C@@H](CC(N)=O)C(=O)N1 (stereo in doubt)	low
CC[C@H](C)[C@@H]1NC(=O)C(Cc2ccccc2)NC(=O)CC2(CCCCC2)SSC[C@H](C(=O)N(C)CC(=O)N[C@@H](CCCN=C(N)N)C(=O)NCC(N)=O)NC(=O)[C@H](CC(N)=O)NC(=O)[C@H](CCC(N)=O)NC1=O (stereo in doubt)	high
CC[C@H](C)[C@@H]1NC(=O)C(Cc2ccccc2)NC(=O)CCSSC[C@H](C(=O)N(C)CC(=O)N[C@@H](CCCN=C(N)N)C(=O)NCC(N)=O)NC(=O)[C@H](CC(N)=O)NC(=O)[C@H](CCC(N)=O)NC1=O (stereo in doubt)	high
CCOc1ccc(CC2NC(=O)CC3(CCCCC3)SSC[C@H](C(=O)N(C)CC(=O)N[C@@H](CCCN=C(N)N)C(=O)NCC(N)=O)NC(=O)[C@H](CC(N)=O)NC(=O)[C@H](CCC(N)=O)NC(=O)[C@H]([C@@H](C)CC)NC2=O)cc1 (stereo in doubt)	high
CCOc1ccc(CC2NC(=O)CC3(CCCCC3)SSC[C@@H](C(=O)N(C)CC(=O)N[C@@H](CCCN=C(N)N)C(=O)NCC(N)=O)NC(=O)[C@H](CC(N)=O)NC(=O)[C@H](CCC(N)=O)NC(=O)[C@H](Cc3ccccc3)NC2=O)cc1 (stereo in doubt)	low

Q: Hi, small favor: classify CN(CC(=O)N[C@@H](CCCNC(=N)N)C(=O)NCC(N)=O)C(=O)[C@@H]1CSSC2(CCCCC2)CC(=O)N[C@@H](Cc2ccc(O)cc2)C(=O)N[C@@H](Cc2ccccc2)C(=O)N[C@@H](CCC(N)=O)C(=O)N[C@@H](CC(N)=O)C(=O)N1 by its Kd when you get a moment.
A: low

Q: Hi, small favor: classify CC[C@H](C)[C@@H]1NC(=O)[C@@H](Cc2c[nH]c3ccccc23)NC(=O)CC2(CCCCC2)SSC[C@@H](C(=O)N(C)CC(=O)N[C@@H](CCCN=C(N)N)C(=O)NCC(N)=O)NC(=O)[C@H](CC(N)=O)NC(=O)[C@H](CCC(N)=O)NC1=O (HELM PEPTIDE1{[dW].I.Q.N.C.[Sar].R.G.[am]}|CHEM1{[O=C(CC1(S[*:2])CCCCC1)[*:1]]}$PEPTIDE1,CHEM1,1:R1-1:R1|PEPTIDE1,CHEM1,5:R3-1:R2$$$V2.0) by its Kd when you get a moment.
A: mid

Q: Hi, small favor: classify CC[C@H](C)[C@@H]1NC(=O)[C@@H](Cc2ccc(OC)cc2)NC(=O)CC2(CCCCC2)SSC[C@@H](C(=O)N(C)CC(=O)N[C@@H](CCCN=C(N)N)C(=O)NCC(N)=O)NC(=O)[C@H](CC(N)=O)NC(=O)[C@H](CCC(N)=O)NC1=O by its Kd when you get a moment.
A: mid

Q: Hi, small favor: classify CN(CC(=O)N[C@@H](CCCN=C(N)N)C(=O)NCC(N)=O)C(=O)[C@@H]1CSSC2(CCCCC2)CC(=O)NC(Cc2ccc(O)cc2)C(=O)N[C@@H](Cc2ccccc2)C(=O)N[C@@H](CCC(N)=O)C(=O)N[C@@H](CC(N)=O)C(=O)N1 (stereo in doubt) by its Kd when you get a moment.
A: low

Q: Hi, small favor: classify CC[C@H](C)C1NC(=O)CC2(CCCCC2)SSC[C@@H](C(=O)N(C)CC(=O)N[C@@H](CCCN=C(N)N)C(=O)NCC(N)=O)NC(=O)[C@H](CC(N)=O)NC(=O)[C@H](CCC(N)=O)NC(=O)[C@H](Cc2ccccc2)NC1=O (stereo in doubt) by its Kd when you get a moment.
A: high
